Data origin, for the record: ChEMBL document CHEMBL3046285

pIC50: −log10 of the molar value.
The following are reported pIC50 results, target or system Prostaglandin G/H synthase 1 (Ovis aries, UniProt P05979).
Parameter: pIC50

> print(dat)
                            chemical.string  measured.result
1  CS(=O)(=O)c1ccc(-c2nc3c(n2-c2ccccc2)CCCC3)cc1             4.25
2  Cc1ccc(-n2c(-c3ccc(S(C)(=O)=O)cc3)nc3c2CCCC3)cc1             4.40
3  CC(=O)Nc1ccc(-n2c(-c3ccc(S(C)(=O)=O)cc3)nc3c2CCCC3)cc1             4.44
